test system: K86415-001-R-J1-PDC complex spheroids, viability; test: Anticancer human tumor K86415-001-R-J1-PDC patient-derived lung adenocarcinoma cell line growth inhibition [RAS]; conditions: second compound 0.00949 µM; first compound 0.1 µM; hits give low values
Recorded endpoint: viability, T/C (%)
Number in %, nothing else.

The recorded viability, T/C for Nc1ccn(C2OC(CO)C(O)C2(F)F)c(=O)n1 (stereo not given) + CCn1c(-c2cccnc2C(C)OC)c2c3cc(ccc31)N1CCOC(CC(NC(=O)C(C(C)C)N(C)C(=O)C3(F)CCN(C(=O)C#CC(C)(C)N(C)C)CC3)C(=O)N3CCCC(N3)C(=O)OCC(C)(C)C2)C1 is 12.3

Form field viability, T/C, entry C=CC(=O)N1CCN(c2nc(OCC3CCCN3C)nc3c(F)c(-c4nc(N)cc(C)c4C(F)(F)F)c(Cl)cc23)C(C)C1 (stereo not given) + CCn1c(-c2cc(N3CCN(C)CC3)cnc2C(C)OC)c2c3cc(ccc31)-c1csc(n1)CC(NC(=O)C1CC1C)C(=O)N1CCCC(N1)C(=O)OCC(C)(C)C2 : 4.25

Reported viability, T/C ( CCN1CCN(Cc2ccc(Nc3ncc(F)c(-c4cc(F)c5nc(C)n(C(C)C)c5c4)n3)nc2)CC1 + CCn1c(-c2cc(N3CCN(C)CC3)cnc2C(C)OC)c2c3cc(ccc31)-c1csc(n1)CC(NC(=O)C1CC1C)C(=O)N1CCCC(N1)C(=O)OCC(C)(C)C2 ) = 11.9

Record CC(Nc1ccc2c(c1)OCCn1cc(N3C(=O)OCC3C(F)F)nc1-2)C(N)=O (stereo not given) + CCn1c(-c2cccnc2C(C)OC)c2c3cc(ccc31)N1CCOC(CC(NC(=O)C(C(C)C)N(C)C(=O)C3(F)CCN(C(=O)C#CC(C)(C)N(C)C)CC3)C(=O)N3CCCC(N3)C(=O)OCC(C)(C)C2)C1 , field viability, T/C: 8.26

Measured viability, T/C of C[C@@H](NC(=O)c1ncnc(N)c1Cl)c1ncc(C(=O)Nc2cc(C(F)(F)F)c(Cl)cn2)s1 + CCn1c(-c2cc(N3CCN(C)CC3)cnc2C(C)OC)c2c3cc(ccc31)-c1csc(n1)CC(NC(=O)C1CC1C)C(=O)N1CCCC(N1)C(=O)OCC(C)(C)C2 : 11.8

----------
test system: K86415-001-R-J1-PDC complex spheroids, viability; assay: Anticancer human tumor K86415-001-R-J1-PDC cell line growth inhibition [RAS]; details: second compound 0.0949 µM; first compound 1 µM; active means viability on the fitted dose curve at most 10% of control; inactive means the rest;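 also: spheroids exposed to agents for seven days before readout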
Hi! Could you answer with just one of these? active, inactive

Per the records of this test, what outcome belongs to CC1(O)CCCC1n1c(=O)c(C(F)F)cc2cnc(NC3CCN(S(C)(=O)=O)CC3)nc21 (stereo not given) + CCn1c(-c2cccnc2C(C)OC)c2c3cc(ccc31)N1CCOC(CC(NC(=O)C(C(C)C)N(C)C(=O)C3(F)CCN(C(=O)C#CC(C)(C)N(C)C)CC3)C(=O)N3CCCC(N3)C(=O)OCC(C)(C)C2)C1 ?
inactive

Please indicate how the test categorized CC(=O)OC12COC1CC(O)C1(C)C(=O)C(O)C3=C(C)C(OC(=O)C(O)C(NC(=O)OC(C)(C)C)c4ccccc4)CC(O)(C(OC(=O)c4ccccc4)C21)C3(C)C (stereo not given) + CCn1c(-c2cc(N3CCN(C)CC3)cnc2C(C)OC)c2c3cc(ccc31)-c1csc(n1)CC(NC(=O)C1CC1C)C(=O)N1CCCC(N1)C(=O)OCC(C)(C)C2 .
active

For CCN1CCN(Cc2ccc(Nc3ncc(F)c(-c4cc(F)c5nc(C)n(C(C)C)c5c4)n3)nc2)CC1 + CCn1c(-c2cccnc2C(C)OC)c2c3cc(ccc31)N1CCOC(CC(NC(=O)C(C(C)C)N(C)C(=O)C3(F)CCN(C(=O)C#CC(C)(C)N(C)C)CC3)C(=O)N3CCCC(N3)C(=O)OCC(C)(C)C2)C1 , which call appears in the assay record?
inactive

Recorded test outcome, item O=C(c1ccc(F)c(F)c1Nc1ccc(I)cc1F)N1CC(O)([C@@H]2CCCCN2)C1 + CCn1c(-c2cccnc2C(C)OC)c2c3cc(ccc31)N1CCOC(CC(NC(=O)C(C(C)C)N(C)C(=O)C3(F)CCN(C(=O)C#CC(C)(C)N(C)C)CC3)C(=O)N3CCCC(N3)C(=O)OCC(C)(C)C2)C1
active

In this assay, the call recorded for O=C(c1ccc(F)c(F)c1Nc1ccc(I)cc1F)N1CC(O)([C@@H]2CCCCN2)C1 + CCn1c(-c2cc(N3CCN(C)CC3)cnc2C(C)OC)c2c3cc(ccc31)-c1csc(n1)CC(NC(=O)C1CC1C)C(=O)N1CCCC(N1)C(=O)OCC(C)(C)C2 was what?
active

Could you check what this test reported for Nc1ccn(C2OC(CO)C(O)C2(F)F)c(=O)n1 (stereo not given) + CCn1c(-c2cc(N3CCN(C)CC3)cnc2C(C)OC)c2c3cc(ccc31)-c1csc(n1)CC(NC(=O)C1CC1C)C(=O)N1CCCC(N1)C(=O)OCC(C)(C)C2 ?
active

Test call for this compound, please: CCN1CCN(Cc2ccc(Nc3ncc(F)c(-c4cc(F)c5nc(C)n(C(C)C)c5c4)n3)nc2)CC1 + CCn1c(-c2cc(N3CCN(C)CC3)cnc2C(C)OC)c2c3cc(ccc31)-c1csc(n1)CC(NC(=O)C1CC1C)C(=O)N1CCCC(N1)C(=O)OCC(C)(C)C2
active

// return assay outcome for NC1c2ccccc2OC12CCN(c1cnc3c(N4CCCc5ncccc54)n[nH]c3n1)CC2 (stereo not given) + CCn1c(-c2cc(N3CCN(C)CC3)cnc2C(C)OC)c2c3cc(ccc31)-c1csc(n1)CC(NC(=O)C1CC1C)C(=O)N1CCCC(N1)C(=O)OCC(C)(C)C2
active

In this assay, the call recorded for NC1c2ccccc2OC12CCN(c1cnc3c(N4CCCc5ncccc54)n[nH]c3n1)CC2 (stereo not given) + CCn1c(-c2cccnc2C(C)OC)c2c3cc(ccc31)N1CCOC(CC(NC(=O)C(C(C)C)N(C)C(=O)C3(F)CCN(C(=O)C#CC(C)(C)N(C)C)CC3)C(=O)N3CCCC(N3)C(=O)OCC(C)(C)C2)C1 was what?
active

Which outcome did this test record for the compound C[C@@H](NC(=O)c1ncnc(N)c1Cl)c1ncc(C(=O)Nc2cc(C(F)(F)F)c(Cl)cn2)s1 + CCn1c(-c2cccnc2C(C)OC)c2c3cc(ccc31)N1CCOC(CC(NC(=O)C(C(C)C)N(C)C(=O)C3(F)CCN(C(=O)C#CC(C)(C)N(C)C)CC3)C(=O)N3CCCC(N3)C(=O)OCC(C)(C)C2)C1 ?
inactive

Recorded call for C=CC(=O)Nc1cc(Nc2nccc(-c3cn(C)c4ccccc34)n2)c(OC)cc1N(C)CCN(C)C + CCn1c(-c2cc(N3CCN(C)CC3)cnc2C(C)OC)c2c3cc(ccc31)-c1csc(n1)CC(NC(=O)C1CC1C)C(=O)N1CCCC(N1)C(=O)OCC(C)(C)C2 ?
active

Could you please tell me the result logged for Cc1nc(N2CCC3(CC2)COC(C)C3N)c(CO)nc1Sc1ccnc(N)c1Cl (stereo not given) + CCn1c(-c2cccnc2C(C)OC)c2c3cc(ccc31)N1CCOC(CC(NC(=O)C(C(C)C)N(C)C(=O)C3(F)CCN(C(=O)C#CC(C)(C)N(C)C)CC3)C(=O)N3CCCC(N3)C(=O)OCC(C)(C)C2)C1 in this assay?
active

Test call for this compound, please: C=CC(=O)N1CCN(c2nc(OCC3CCCN3C)nc3c(F)c(-c4nc(N)cc(C)c4C(F)(F)F)c(Cl)cc23)C(C)C1 (stereo not given) + CCn1c(-c2cccnc2C(C)OC)c2c3cc(ccc31)N1CCOC(CC(NC(=O)C(C(C)C)N(C)C(=O)C3(F)CCN(C(=O)C#CC(C)(C)N(C)C)CC3)C(=O)N3CCCC(N3)C(=O)OCC(C)(C)C2)C1
inactive

Give the logged outcome of this assay for the following compound: CC(Nc1ccc2c(c1)OCCn1cc(N3C(=O)OCC3C(F)F)nc1-2)C(N)=O (stereo not given) + CCn1c(-c2cccnc2C(C)OC)c2c3cc(ccc31)N1CCOC(CC(NC(=O)C(C(C)C)N(C)C(=O)C3(F)CCN(C(=O)C#CC(C)(C)N(C)C)CC3)C(=O)N3CCCC(N3)C(=O)OCC(C)(C)C2)C1
active

# lookup: test call for Nc1ccn(C2OC(CO)C(O)C2(F)F)c(=O)n1 (stereo not given) + CCn1c(-c2cccnc2C(C)OC)c2c3cc(ccc31)N1CCOC(CC(NC(=O)C(C(C)C)N(C)C(=O)C3(F)CCN(C(=O)C#CC(C)(C)N(C)C)CC3)C(=O)N3CCCC(N3)C(=O)OCC(C)(C)C2)C1
inactive

Value source: PubChem BioAssay AID2060893
